- Test system: RPMI-8226 leukemia
- assay-info: NCI-60 one-dose screen, 48 h
- applied-conditions: 10 µM unless noted
The panel holds about 83,000 compounds, 20% with a hit somewhere; the sample as a whole holds those more often. The source made the active and inactive calls. The calls were made as follows: active = growth percent below 10; inactive = the rest.
Select the correct class. Options are active, inactive and nothing else.

Reference set, count: 3
compound | category
O=C(N=Nc1c(O)[nH]c2ccc(Br)cc12)c1ccc2nc(-c3ccc(Cl)cc3)[nH]c2c1 | inactive
COc1c(F)ccc(C(=O)Nc2ccc3nc(NC(=O)C4CCCN(S(=O)(=O)c5ccc(C(C)(C)C)cc5)C4)sc3c2)c1F (stereo not drawn) | inactive
COc1cc(/C=C/C(=O)c2cnn(-c3cc(=O)[nH]c4ccc(Br)cc34)c2C)cc(OC)c1OC | active

Would you mind telling me which call this test gave "Cc1ccccc1Nc1nnc(-c2c[nH]c3ccccc23)o1" ?
active

Lab log entry: "COc1cc(CNC(=O)C[C@H](C)CCC=C(C)C)ccc1OCc1cn(-c2ccccc2F)nn1" — outcome as called in the assay?
inactive

Outcome logged for "O=C(N=Nc1c(O)[nH]c2ccc(Cl)cc12)c1ccc2nc(-c3ccc(Cl)cc3)[nH]c2c1" in this assay:
inactive

Please let me know the test result on file for "O=c1c(-c2nc(-c3ccccc3)c(-c3ccccc3)[nH]2)coc2ccc(F)cc12" .
inactive

Tell me the assay call for CCC1(OC(=O)c2ccccc2SSCCOC(=O)CCCCC2SCC3NC(=O)NC32)C(=O)OCc2c1cc1n(c2=O)Cc2cc3ccccc3nc2-1 (stereo not drawn) please.
inactive
